Let's look at some compounds and their measured inhibition at 10 µM.
Target: hFASN enzyme (full length) (Homo sapiens, UniProt P49327)
Construct: 10 μL hFASN enzyme (full length, 300 ng, purified in house); made in house
Sequence (P49327 whole entry): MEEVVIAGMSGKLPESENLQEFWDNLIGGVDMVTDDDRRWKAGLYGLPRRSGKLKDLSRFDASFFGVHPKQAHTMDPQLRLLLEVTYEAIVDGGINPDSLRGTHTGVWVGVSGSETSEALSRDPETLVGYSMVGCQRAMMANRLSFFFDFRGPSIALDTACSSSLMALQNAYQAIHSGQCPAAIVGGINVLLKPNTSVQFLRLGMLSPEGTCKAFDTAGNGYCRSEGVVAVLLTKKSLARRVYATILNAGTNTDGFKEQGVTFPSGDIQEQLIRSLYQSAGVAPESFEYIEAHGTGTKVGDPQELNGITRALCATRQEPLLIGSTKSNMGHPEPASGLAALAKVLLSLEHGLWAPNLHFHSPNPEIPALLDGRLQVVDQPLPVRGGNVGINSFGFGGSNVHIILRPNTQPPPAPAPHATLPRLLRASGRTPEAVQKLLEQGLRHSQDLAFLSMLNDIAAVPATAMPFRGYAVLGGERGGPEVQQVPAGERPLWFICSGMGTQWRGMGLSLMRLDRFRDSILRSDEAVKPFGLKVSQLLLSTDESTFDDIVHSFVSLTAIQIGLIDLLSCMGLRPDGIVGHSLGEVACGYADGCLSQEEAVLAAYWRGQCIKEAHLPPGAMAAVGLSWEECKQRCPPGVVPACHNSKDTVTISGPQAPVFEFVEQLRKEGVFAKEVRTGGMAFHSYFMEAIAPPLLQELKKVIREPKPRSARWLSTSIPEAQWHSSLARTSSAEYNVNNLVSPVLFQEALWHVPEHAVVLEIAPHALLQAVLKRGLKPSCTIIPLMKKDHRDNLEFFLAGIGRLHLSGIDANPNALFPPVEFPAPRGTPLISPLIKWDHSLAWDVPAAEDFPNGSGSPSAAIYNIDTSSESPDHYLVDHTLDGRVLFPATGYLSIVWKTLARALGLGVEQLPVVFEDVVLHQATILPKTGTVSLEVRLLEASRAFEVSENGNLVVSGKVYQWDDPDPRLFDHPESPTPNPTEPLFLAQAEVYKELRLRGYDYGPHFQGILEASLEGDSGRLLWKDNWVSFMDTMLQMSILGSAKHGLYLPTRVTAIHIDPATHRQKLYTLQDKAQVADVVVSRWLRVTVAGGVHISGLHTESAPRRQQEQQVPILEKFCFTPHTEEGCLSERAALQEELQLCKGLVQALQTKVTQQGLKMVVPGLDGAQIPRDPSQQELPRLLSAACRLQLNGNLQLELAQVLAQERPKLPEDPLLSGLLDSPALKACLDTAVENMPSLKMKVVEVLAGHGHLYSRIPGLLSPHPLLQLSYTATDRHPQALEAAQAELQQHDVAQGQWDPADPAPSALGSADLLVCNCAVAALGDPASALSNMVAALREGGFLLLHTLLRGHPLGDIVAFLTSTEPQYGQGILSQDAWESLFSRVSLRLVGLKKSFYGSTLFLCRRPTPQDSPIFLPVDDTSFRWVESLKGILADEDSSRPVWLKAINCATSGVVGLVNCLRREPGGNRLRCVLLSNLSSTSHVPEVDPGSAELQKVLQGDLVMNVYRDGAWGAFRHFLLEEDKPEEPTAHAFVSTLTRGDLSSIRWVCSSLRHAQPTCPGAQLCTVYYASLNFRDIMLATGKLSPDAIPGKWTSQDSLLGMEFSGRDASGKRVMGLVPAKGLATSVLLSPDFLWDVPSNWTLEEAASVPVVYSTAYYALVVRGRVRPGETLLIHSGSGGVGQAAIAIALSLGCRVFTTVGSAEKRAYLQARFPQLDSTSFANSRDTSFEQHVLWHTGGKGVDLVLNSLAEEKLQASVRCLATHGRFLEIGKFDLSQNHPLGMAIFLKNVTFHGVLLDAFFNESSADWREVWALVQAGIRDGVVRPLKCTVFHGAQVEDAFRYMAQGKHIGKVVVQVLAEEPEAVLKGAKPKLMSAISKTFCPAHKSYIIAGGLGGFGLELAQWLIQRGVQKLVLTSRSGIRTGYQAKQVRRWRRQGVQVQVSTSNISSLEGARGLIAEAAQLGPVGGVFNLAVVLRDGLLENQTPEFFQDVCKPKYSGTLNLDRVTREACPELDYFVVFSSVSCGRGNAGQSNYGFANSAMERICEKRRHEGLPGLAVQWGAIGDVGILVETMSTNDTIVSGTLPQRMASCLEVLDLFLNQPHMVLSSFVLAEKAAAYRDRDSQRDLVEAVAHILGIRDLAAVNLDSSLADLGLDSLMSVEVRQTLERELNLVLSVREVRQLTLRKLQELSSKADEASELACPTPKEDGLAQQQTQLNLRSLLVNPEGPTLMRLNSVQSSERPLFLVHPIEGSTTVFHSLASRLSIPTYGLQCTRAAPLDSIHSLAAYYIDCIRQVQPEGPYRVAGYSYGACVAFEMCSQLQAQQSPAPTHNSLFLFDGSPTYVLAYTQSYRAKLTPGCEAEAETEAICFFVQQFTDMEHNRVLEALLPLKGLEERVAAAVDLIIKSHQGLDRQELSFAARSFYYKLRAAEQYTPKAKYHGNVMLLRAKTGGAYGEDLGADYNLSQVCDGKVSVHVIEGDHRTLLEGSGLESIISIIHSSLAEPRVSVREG
Experiment: Fatty Acid Synthase (FASN) Inhibition Scintillation Proximity Assay
Assay type: biochemical
Conditions: read-out: FASN % Effect @1E−05M
Procedure: In this assay, inhibition of FASN activity is measured using ^3H-acetyl-CoA and malonyl-CoA as substrates. ^3H-Acetyl CoA is converted to ^3H-palmitate through a series of reactions by the FASN protein, which contains 7 functional domains and carries out 7 enzymatic reactions to ultimately produce ^3H-palmitate. […] Raw data generated by the instrument were normalized to % Controlmin values, which were calculated as: % Controlmin=100*(x−mLC)/(mHC−mLC) […]
experimental.readout: inhibition at 10 µM (%)

compound=COc1ccc(C(=O)N2CC(c3ccc(-c4cnn(C)c4)cc3)C2)cc1NC(=O)c1ccc(NC(C)C)nc1 target_or_test_system="hFASN enzyme (full length) (Homo sapiens, UniProt P49327)" reported=113
compound=Cc1ccc(C(=O)N2CC(c3ccc(-c4cnn(C)c4)cc3)C2)cc1NC(=O)c1ccc2ccccc2n1 target_or_test_system="hFASN enzyme (full length) (Homo sapiens, UniProt P49327)" reported=108
compound=Cc1ccc(C(=O)N2CCC(c3ccc(-c4cnn(C)c4)cc3)CC2)cc1NC(=O)[C@H]1CCCN1C target_or_test_system="hFASN enzyme (full length) (Homo sapiens, UniProt P49327)" reported=110
compound=Cc1ccc(C(=O)N2CCC(c3ccc4nccn4c3)CC2)cc1NC(=O)c1ccc(Cl)nc1 target_or_test_system="hFASN enzyme (full length) (Homo sapiens, UniProt P49327)" reported=30
compound=CN(C)c1ccc(C(=O)N2CCC(c3ccc(-c4cnn(C)c4)cc3)CC2)cc1NC(=O)c1ccc(Cl)nc1 target_or_test_system="hFASN enzyme (full length) (Homo sapiens, UniProt P49327)" reported=99
compound=Cc1ccc(C(=O)N2CC(c3ccc(-c4ccc5cnn(C)c5c4)cc3)C2)cc1NC(=O)c1ccc(NC(C)C)nc1 target_or_test_system="hFASN enzyme (full length) (Homo sapiens, UniProt P49327)" reported=106
compound=CCC(CC)C(=O)Nc1cc(C(=O)N2CC(c3ccc(-c4cnn(C)c4)cc3)C2)ccc1C target_or_test_system="hFASN enzyme (full length) (Homo sapiens, UniProt P49327)" reported=102
compound=CN(C)c1ccc(C(=O)N2CCC(c3ccc(-c4cnn(C)c4)cc3)CC2)cc1NC(=O)C1CC1 target_or_test_system="hFASN enzyme (full length) (Homo sapiens, UniProt P49327)" reported=98
compound=Cc1ccc(C(=O)N2CCC(c3ccc(-c4ccsc4)cc3)CC2)cc1NC(=O)c1ccc(NC(C)C)nc1 target_or_test_system="hFASN enzyme (full length) (Homo sapiens, UniProt P49327)" reported=102
compound=Cc1ccc(C(=O)N2CCC(c3ccc4[nH]c(=O)sc4c3)CC2)cc1NC(=O)c1ccc(Cl)nc1 target_or_test_system="hFASN enzyme (full length) (Homo sapiens, UniProt P49327)" reported=92
compound=Cc1ccc(C(=O)N2CCC(c3ccc(-c4cnn(C5CC5)c4)cc3)CC2)cc1NC(=O)c1ccc(NC(C)C)nc1 target_or_test_system="hFASN enzyme (full length) (Homo sapiens, UniProt P49327)" reported=103
compound=Cc1ccc(C(=O)N2CCC(c3ccc(-c4cnn(C)c4)cc3)CC2)cc1NC(=O)C(C)(C)C target_or_test_system="hFASN enzyme (full length) (Homo sapiens, UniProt P49327)" reported=96
compound="Cc1ccc(C(=O)N2CCC(c3ccc(-c4cnn(C)c4)cc3)CC2)cc1NC(=O)C1CCN(C2CCC2)C1 (stereo not shown)" target_or_test_system="hFASN enzyme (full length) (Homo sapiens, UniProt P49327)" reported=101
compound=CC(C)Nc1ccc(C(=O)Nc2cc(C(=O)N3CC(c4ccc(-c5ccncc5)cc4)C3)ccc2Cl)cn1 target_or_test_system="hFASN enzyme (full length) (Homo sapiens, UniProt P49327)" reported=107
compound=Cc1ccc(C(=O)N2CC(O)(c3ccc(-c4ccnn4C)cc3)C2)cc1NC(=O)c1ccc(Cl)nc1 target_or_test_system="hFASN enzyme (full length) (Homo sapiens, UniProt P49327)" reported=41
compound=Cc1ccc(C(=O)N2CC(c3ccc(-c4ccncc4N)cc3)C2)cc1NC(=O)c1ccc(N2CCOCC2)nc1 target_or_test_system="hFASN enzyme (full length) (Homo sapiens, UniProt P49327)" reported=110

Entry source: patent US9562035B2
